# measurement-target: cloned dopamine human D2Long receptor (Homo sapiens, UniProt P14416)
# Sequence (P14416 whole entry): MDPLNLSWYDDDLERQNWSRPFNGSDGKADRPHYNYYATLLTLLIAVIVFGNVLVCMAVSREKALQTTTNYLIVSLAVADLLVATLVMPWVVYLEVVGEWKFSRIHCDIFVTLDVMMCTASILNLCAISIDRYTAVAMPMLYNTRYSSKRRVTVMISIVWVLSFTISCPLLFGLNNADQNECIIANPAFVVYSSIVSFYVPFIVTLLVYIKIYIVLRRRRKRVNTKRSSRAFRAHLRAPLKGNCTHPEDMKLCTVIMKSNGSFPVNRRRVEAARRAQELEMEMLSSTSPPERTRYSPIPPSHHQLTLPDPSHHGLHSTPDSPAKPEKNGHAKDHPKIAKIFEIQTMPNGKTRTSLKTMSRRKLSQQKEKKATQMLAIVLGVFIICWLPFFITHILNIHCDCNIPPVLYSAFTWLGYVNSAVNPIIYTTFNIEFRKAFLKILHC
# experimental-protocol: Competitive binding at cloned dopamine D2 receptor ([3H]raclopride)
# assay-context: 2 nM [3H]raclopride, read-out: dissociation constant, K, at D2 receptor
For each entry below, report its Ki value.
One number for each entry, in µM.

{"compound": "COc1cccc(C(=O)CCCN2CCC(O)(c3ccccc3)CC2)c1 [Example 2(b), reference compound]", "units-symbol": "µM", "Ki": 0.66}

Below: the item to evaluate.
Note down Ki recorded for COc1cccc(C(=O)CCCN2CCC(O)(c3ccc(Cl)cc3)CC2)c1 [Example 2(a)] 0.14

* * *

# measurement-target: muscarinic cholinergic receptor (rat cortex tissue)
# experimental-protocol: Competitive binding at muscarinic receptor ([3H]QNB)
# assay-context: read-out: dissociation constant at muscarinic cholinergic receptor
parameter: pKi
One number for each entry, as −log10 of the molar value.

System muscarinic cholinergic receptor (rat cortex tissue). Read-out pKi. Item COc1cccc(C(=O)CCCN2CCC(O)(c3ccc(Cl)cc3)CC2)c1 . Report value. 6.24

Where do the numbers come from? From patent US20100004289A1.
